target: T1, PCSK9 D374Y mutant protein inserted with biotin receiving peptide BP15 and His-tag: PCSK9-D374Y-BP15-His6 (human, UniProt Q8NBP7 153-692; A8T644 31-152, biotin on the BP15 biotin receiving peptide); assay: competition ELISA, LDLR-FC coated, biotin PCSK9-Y + antibody
T1 construct: also called PCSK9-Y; mutant PCSK9
Exercise: for every item that follows, state its recorded IC50.
Numbers only, in µg/mL.

I need IC50 for every entry listed below, if you could help.
1. h011-3093 (antibody, V domains shown) VH: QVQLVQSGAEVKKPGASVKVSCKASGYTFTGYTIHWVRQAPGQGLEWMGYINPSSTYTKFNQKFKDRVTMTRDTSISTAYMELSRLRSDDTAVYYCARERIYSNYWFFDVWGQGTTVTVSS VL: DIVMTQSPSSLSASVGDRVTITCKASQNVYTAVAWYQQKPGKSPKLLIYEMVNRYTGVPSRFSGSGSGTDFTLTISSLQPEDFATYFCQQYSSYPYTFGGGTKVEIK
2. h011-3193 (antibody, V domains shown) VH: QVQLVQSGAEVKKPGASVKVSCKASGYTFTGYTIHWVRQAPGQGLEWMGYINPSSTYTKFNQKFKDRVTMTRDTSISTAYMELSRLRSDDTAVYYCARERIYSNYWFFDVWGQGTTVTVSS VL: DIVMTQSPSSLSASVGDRVTITCKASQNVYTAVDWYQQKPGKSPKLLIYSASNRYTGVPSRFSGSGSGTDFTLTISSLQPEDFATYFCQQYSSYPYTFGGGTKVEIK
3. h011-3191 (antibody, V domains shown) VH: QVQLVQSGAEVKKPGASVKVSCKASGYTFTGYTIHWVRQAPGQGLEWMGYIVPSSTYTKFNQKFKDRVTMTRDTSISTAYMELSRLRSDDTAVYYCARERIYSNYWFFDVWGQGTTVTVSS VL: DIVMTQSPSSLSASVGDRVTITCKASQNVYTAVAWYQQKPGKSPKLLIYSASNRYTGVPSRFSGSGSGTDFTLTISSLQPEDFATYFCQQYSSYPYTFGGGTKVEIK
4. h011-3070 (antibody, V domains shown) VH: QVQLVQSGAEVKKPGASVKVSCKASGYTFTGYTIHWVRQAPGQGLEWMGYINPSSTYTKFNQKFKDRVTMTRDTSISTAYMELSRLRSDDTAVYYCARENIYFNYWFFDRWGQGTTVTVSS VL: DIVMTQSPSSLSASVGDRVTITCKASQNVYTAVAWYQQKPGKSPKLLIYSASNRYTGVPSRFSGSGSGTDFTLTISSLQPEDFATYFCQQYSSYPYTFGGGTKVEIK
5. h011-3073 (antibody, V domains shown) VH: QVQLVQSGAEVKKPGASVKVSCKASGYTFTGYTIHWVRQAPGQGLEWMGYINPSSTYTKFNQKFKDRVTMTRDTSISTAYMELSRLRSDDTAVYYCARENIFSNYWFFDRWGQGTTVTVSS VL: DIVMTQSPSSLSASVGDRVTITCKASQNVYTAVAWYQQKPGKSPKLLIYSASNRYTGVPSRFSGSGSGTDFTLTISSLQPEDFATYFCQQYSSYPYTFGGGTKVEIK
6. h011-3120 (antibody, V domains shown) VH: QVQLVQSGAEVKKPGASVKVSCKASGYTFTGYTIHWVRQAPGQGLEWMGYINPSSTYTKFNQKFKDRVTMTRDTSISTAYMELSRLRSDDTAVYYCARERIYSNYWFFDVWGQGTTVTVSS VL: DIVMTQSPSSLSASVGDRVTITCKASQNVYTAVAWYQQKPGKSPKLLIYSASNRYTGVPSRFSGSGSGTDFTLTISSLQPEDFATYFCQQFSWFPYTFGGGTKVEIK
7. h011-3058 (antibody, V domains shown) VH: QVQLVQSGAEVKKPGASVKVSCKASGYTFTGYTIHWVRQAPGQGLEWMGEINPSGTYTKFNQKFKDRVTMTRDTSISTAYMELSRLRSDDTAVYYCARERIYSNYWFFDVWGQGTTVTVSS VL: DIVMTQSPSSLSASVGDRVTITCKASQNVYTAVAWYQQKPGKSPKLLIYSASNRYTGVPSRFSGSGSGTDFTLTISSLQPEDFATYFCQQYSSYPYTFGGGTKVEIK
8. h011-3187 (antibody, V domains shown) VH: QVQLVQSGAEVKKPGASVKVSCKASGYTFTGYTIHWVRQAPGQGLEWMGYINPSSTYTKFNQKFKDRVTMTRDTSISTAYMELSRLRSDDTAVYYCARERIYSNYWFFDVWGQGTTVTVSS VL: DIVMTQSPSSLSASVGDRVTITCKASQNVYTAVAWYQQKPGKSPKLLIYSASNRYTGVPSRFSGSGSGTDFTLTISSLQPEDFATYFCQQLSSSPETFGGGTKVEIK

Return:
[0.287, 0.871, 0.226, 0.228, 0.129, 0.213, 0.162, 0.156]

Batch request: IC50 per item, same order as input.
1. h011-3111 (antibody, V domains shown) VH: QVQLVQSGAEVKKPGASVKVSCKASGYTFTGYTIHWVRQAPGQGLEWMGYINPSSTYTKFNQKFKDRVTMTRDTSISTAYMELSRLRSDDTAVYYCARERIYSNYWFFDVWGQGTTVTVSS VL: DIVMTQSPSSLSASVGDRVTITCKASQNVYWEVDWYQQKPGKSPKLLIYSASNRYTGVPSRFSGSGSGTDFTLTISSLQPEDFATYFCQQYSSYPYTFGGGTKVEIK
2. h011-3095 (antibody, V domains shown) VH: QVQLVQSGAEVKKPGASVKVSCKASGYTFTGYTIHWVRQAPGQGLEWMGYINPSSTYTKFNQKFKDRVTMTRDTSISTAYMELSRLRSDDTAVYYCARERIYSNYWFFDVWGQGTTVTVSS VL: DIVMTQSPSSLSASVGDRVTITCKASQNVYTAVAWYQQKPGKSPKLLIYEASNRYTGVPSRFSGSGSGTDFTLTISSLQPEDFATYFCQQYSSYPYTFGGGTKVEIK

Return:
1. 0.226
2. 0.391

# credit: patent US20200270365A1
